meta.source: paper PMC4335020

testMethodNotes: Single oral dose human plasma pharmacokinetics of D, DA and DOH after Cogni.Q
Type: in vivo
protocolConditions: human, plasma, oral, 4 Cogni.Q vegicaps, subject S8 (160 lb); read-out: Cmax
// Cmax lookup, one value per entry
Give a bare numeral; the unit nM is implied.

// known answers, use as guide
| compound | unitAbbreviation | Cmax |
| --- | --- | --- |
| C/C=C(/C)C(=O)O[C@H]1Cc2cc3ccc(=O)oc3cc2OC1(C)C [DA, decursinol angelate] | nM | 183 |
| CC(C)=CC(=O)O[C@H]1Cc2cc3ccc(=O)oc3cc2OC1(C)C [D, decursin] | nM | 9.6 |

Switching to the query record.
I'd like to know its Cmax. The compound in question is CC1(C)Oc2cc3oc(=O)ccc3cc2C[C@@H]1O [DOH, decursinol]
2530

====

testMethodNotes: Single oral dose human plasma pharmacokinetics of D, DA and DOH after Cogni.Q
Format: in vivo
protocolConditions: human, plasma, oral, 4 Cogni.Q vegicaps, subject S1 (115 lb); outlier, excluded from means; read-out: Terminal t1/2, h (converted)
valueKind: half-life (h)
Give a bare numeral; the unit h is implied.

// known answers, use as guide
| compound | unitAbbreviation | reportedValue |
| --- | --- | --- |
| CC1(C)Oc2cc3oc(=O)ccc3cc2C[C@@H]1O | h | 9.9 |
| CC(C)=CC(=O)O[C@H]1Cc2cc3ccc(=O)oc3cc2OC1(C)C | h | 173 |

Switching to the query record.
I'd like to know its half-life. The compound in question is C/C=C(/C)C(=O)O[C@H]1Cc2cc3ccc(=O)oc3cc2OC1(C)C [DA, decursinol angelate]
20.2

====

testMethodNotes: Single oral dose human plasma pharmacokinetics of D, DA and DOH after Cogni.Q
Format: in vivo
protocolConditions: human, plasma, oral, 4 Cogni.Q vegicaps, subject S4 (170 lb); read-out: Cmax
Procedure: Ten healthy male and 10 female subjects were recruited by public announcement in Amarillo, TX, from January 2013 to April 2013 (see Fig. 1 CONSORT diagram). […] Plasma was prepared by centrifuging the heparinized blood at 1000 g for 15 minutes at room temperature. Urine samples (40mL) were collected within time spans of 0–4, 4–8, 8–12 and 12–24 hours (total volume of urine was recorded). […]
// Cmax lookup, one value per entry
Give a bare numeral; the unit nM is implied.

| molecule | Cmax, nM |
| --- | --- |
| C/C=C(/C)C(=O)O[C@H]1Cc2cc3ccc(=O)oc3cc2OC1(C)C [DA, decursinol angelate] | 100 |
| CC1(C)Oc2cc3oc(=O)ccc3cc2C[C@@H]1O | 2680 |

Switching to the query record.
I'd like to know its Cmax. The molecule in question is CC(C)=CC(=O)O[C@H]1Cc2cc3ccc(=O)oc3cc2OC1(C)C
13.2

====

testMethodNotes: Single oral dose human plasma pharmacokinetics of D, DA and DOH after Cogni.Q
Format: in vivo
protocolConditions: male, human, plasma, oral, 4 Cogni.Q vegicaps, Men n=10 (S1 Table); read-out: Tmax, h, Mean
valueKind: Tmax (h)
Give a bare numeral; the unit h is implied.

// known answers, use as guide
| molecule | Tmax, h |
| --- | --- |
| CC(C)=CC(=O)O[C@H]1Cc2cc3ccc(=O)oc3cc2OC1(C)C | 1.7 |
| C/C=C(/C)C(=O)O[C@H]1Cc2cc3ccc(=O)oc3cc2OC1(C)C [DA, decursinol angelate] | 2.1 |

Switching to the query record.
I'd like to know its Tmax. The molecule in question is CC1(C)Oc2cc3oc(=O)ccc3cc2C[C@@H]1O
2.4
